Test: in vitro
Conditions: human, hela cells, % viability
Please provide measured viability at 28.5 h, 10 µM for the entries that follow.
Express it in %; write the number only.

Given item `O=c1[nH]c(=O)c2cc(S(=O)(=O)NCc3ccccc3CN3CCCC3)ccc2[nH]1` , the value recorded as its viability at 28.5 h, 10 µM is 108

compound CC(C)S(=O)(=O)N1CC2CCCC(O)(c3cccc(F)c3)C2C1 (stereo not shown) , viability at 28.5 h, 10 µM observed: 109

The compound listed as `Cc1sc2nc(SCC(=O)NCCO)nc(N)c2c1C` shows viability at 28.5 h, 10 µM equal to 109

The reported viability at 28.5 h, 10 µM of the compound CCC(O)Cn1nc(CCSC)nc1-c1cc(=O)n(C)c2ccccc12 (stereo not shown) was 83.6

Record `O=C(O)/C=C/c1cccc(-c2cncc(NCCc3ccncc3)n2)c1` . Reported viability at 28.5 h, 10 µM: 99.5

// Cc1ccc(C)c(NC(CC(=O)c2ccccc2)C(=O)O)c1 (stereo not shown) : viability at 28.5 h, 10 µM value = 102

viability at 28.5 h, 10 µM in this record for O=C(O)c1ccc(CNC(=O)c2ccc3c(c2)C(=O)N(CC2CCCO2)C3=O)cc1 (stereo not shown) : 98.4

Form: compound = `Cc1c(S(=O)(=O)Nc2ccnn2C)cnn1-c1ccccc1` ; viability at 28.5 h, 10 µM = 97.5

Lab note: measured viability at 28.5 h, 10 µM of `O=C(O)COCC(=O)NC12CC3CC(CC(C3)C1)C2` was 97.9

compound CC(Cn1cccn1)C(=O)N1CCc2sccc2C1C (stereo not shown) , viability at 28.5 h, 10 µM observed: 103

`CCOc1ccc(-n2c(N)c(C(=O)NCc3ccco3)sc2=S)cc1` yielded viability at 28.5 h, 10 µM of 96.3

Value of measured viability at 28.5 h, 10 µM for the entry Cc1csc(C(Cc2cccs2)NC(=O)CN2CCCC2=O)n1 (stereo not shown) : 109

Per the records, this compound ( `Clc1cc2nc(OCCCc3ccncc3)c(N3CCCC3)nc2cc1Cl` ) has viability at 28.5 h, 10 µM equal to 98

In plain terms, COc1ccc(CCN2C(=O)c3ccccc3C2(O)c2ncc[nH]2)cc1OC (stereo not shown) has a documented viability at 28.5 h, 10 µM of 103

Item: O=S(=O)(NCC1COc2ccccc2O1)c1cc(Cl)sc1Cl (stereo not shown) | viability at 28.5 h, 10 µM: 85.4

Record `COC(=O)CCc1ccc(S(=O)(=O)N2CCCN(Cc3ccc(Cl)c(C(F)(F)F)c3)CC2)cc1` , field viability at 28.5 h, 10 µM: 102

The recorded viability at 28.5 h, 10 µM for entry `Cc1c(C(N)=O)sc(NC(=O)c2cccnc2)c1C#N` equals 105

viability at 28.5 h, 10 µM for `FC(F)(F)c1ccc(OCCN2CCOCC2)nc1` is 101

Query `O=C(NCCCCn1ccnc1)c1noc2c1CCCC2` yields viability at 28.5 h, 10 µM of 93.9

Note to self: viability at 28.5 h, 10 µM recorded for `CC(C)(C)c1ccc(OCC(=O)Nc2ccc(OCC(=O)O)cc2)cc1` was 113

GET /value?item= COc1ccccc1N1CCN(c2nccc3sc(S(=O)(=O)NC4CCC4)cc23)CC1 [CBK038248C] &field=viability at 28.5 h, 10 µM returns 87.7

Looking up Cc1cnc2[nH]c(C3CCCN(C(=O)c4cccnc4C)C3)cc2c1 (stereo not shown) , I see its viability at 28.5 h, 10 µM listed as 101

viability at 28.5 h, 10 µM for CCc1nc(CC(=O)NC(c2ccc(F)cc2)C2CCCO2)cs1 (stereo not shown) is 117

Reported viability at 28.5 h, 10 µM for Cc1ccccc1C1NC(=O)NC2=C1C(=O)N(C)C2 (stereo not shown) was 96.8

Data point: `CCc1nn(CC(=O)N2CCCC2)c(=O)c2cc3ccsc3n12` ; viability at 28.5 h, 10 µM = 84.2
